System: HOP-92 NSCLC
assay-name: NCI tumour cell line growth inhibition, 48 h
Outcome: satisfied for TGI of at least 30 µM; not satisfied for anything lower.

Worked set:
{"molecule": "C[Si](C)(C)/C(I)=C/CO", "qualitative-label": "satisfied"}
{"molecule": "CC(=O)NNc1nc(-c2ccc([N+](=O)[O-])cc2)c(C#N)c(=O)n1C", "qualitative-label": "satisfied"}
{"molecule": "O=C(Nc1cc(C(F)(F)F)ccc1Cl)c1cccc(NC2=C(Cl)C(=O)N(Cc3ccccc3)C2=O)c1", "qualitative-label": "satisfied"}
{"molecule": "CC1CCN(C(=O)OCc2nc3nc(Cl)nc(N4CCOCC4)c3[nH]2)CC1", "qualitative-label": "not satisfied"}

Input: // inclusive: TGI at least 30 µM? input: CCOC(=O)c1ccc(N=Nc2cc(C(=O)OCC)ccc2O)cc1
Output: satisfied

Input: // inclusive: TGI at least 30 µM? input: O=C(Nc1ccc([N+](=O)[O-])cc1[N+](=O)[O-])C(=O)C(C(=O)c1ccc2ccccc2c1)C1OC(=O)c2ccccc21 (stereo not given)
Output: satisfied

Input: // inclusive: TGI at least 30 µM? input: BrCc1cccc(C[P+](c2ccccc2)(c2ccccc2)c2ccccc2)c1
Output: satisfied

Origin of the recorded values: PubChem BioAssay (NCI)
